tested on: HCT116; experiment: efficacy (fitted maximal change in viability relative to DMSO control); higher = less cytotoxic (negative = loss of viability); details: 48 h
Assignment: determine reported efficacy for the given compounds.
Numbers only, in %.

| sample-smiles | number |
| --- | --- |
| COc1cc2c(Oc3ccc4[nH]c(C)cc4c3F)ncnc2cc1OCCCN1CCCC1 | -111 |

Batch of 3 compounds: report efficacy for each.
1. O=C(Nc1ccc2c(c1)CCN(Cc1ncn[nH]1)C2)c1ccccc1-c1ccc(C(F)(F)F)cc1
2. COc1ccc(-c2cnc3c(-c4cccc5ncccc45)cnn3c2)cc1
3. NC(=O)c1cccc2nc(-c3ccc([C@H]4CCCN4)cc3F)[nH]c12

## Result
1. 17.5
2. 9.54
3. -67.3

----------
tested on: HCT116; experiment: efficacy (fitted maximal change in viability relative to DMSO control); higher = less cytotoxic (negative = loss of viability); conditions: 48 h
Structures can show the parent of a compound that is named as a salt.
outcome-measure: efficacy (%)
Give bare numbers, in %.

Observe how each entry below is paired with its result.
| compound | efficacy [%] |
| --- | --- |
| CCCCNc1ncc2c(-c3ccc(CN4CCN(C)CC4)cc3)cn([C@H]3CC[C@H](O)CC3)c2n1 [UNC2025 (hydrochloride)] | -93.7 |
| COc1ccccc1N1CCN(CCN(C(=O)C2CCCCC2)c2ccccn2)CC1 | -31.7 |
| C=CCNC1=C2C[C@@H](C)C[C@H](OC)[C@H](O)[C@@H](C)/C=C(\C)[C@H](OC(N)=O)[C@@H](OC)/C=C\C=C(/C)C(=O)NC(=CC1=O)C2=O | -65.7 |

Here is another compound to look at.
## Task Any idea what its efficacy is? The compound is `O=C(NC[C@H](O)CN1CCc2ccccc2C1)c1cc(NC2COC2)ncn1`
## Result 13

----------
Assignment: determine reported efficacy for the given molecules.
system: HCT116; experiment: efficacy (fitted maximal change in viability relative to DMSO control); higher = less cytotoxic (negative = loss of viability); details: 48 h
One number for each entry, in %.

Observe how each entry below is paired with its result.
| molecule | outcome-measure | number |
| --- | --- | --- |
| Cc1nc([C@](C)(O)CO)sc1-c1cnc(N)c(O[C@H](C)c2cc(F)ccc2-n2nccn2)c1 | efficacy | -57.7 |
| CN(C(Cc1ccc(OS(=O)(=O)c2cccc3cnccc23)cc1)C(=O)N1CCN(c2ccccc2)CC1)S(=O)(=O)c1cccc2cnccc12 (centres undefined) [KN-62] | efficacy | -21.2 |

Batch of 2 molecules: report efficacy for each.
1. O=C(CCCCCCC(=O)N/N=C/c1ccc(N(c2ccccc2)c2ccccc2)cc1)NO [WT-161]
2. CC(C)NCCCn1c(Sc2cc(Cl)cc(Cl)c2)nc2c(N)ncnc21 [PU-WS-13]

## Result
-86.8
-82.4

----------
Assignment: determine reported AC50 cell viability for the given molecules.
test system: HCT116; assay: AC50 cell viability (CellTiter-Glo); higher = less potent; conditions: 48 h
Numbers only, in µM.

Batch of 4 molecules: report AC50 cell viability for each.
1. Clc1ccc(C(Cn2ccnc2)OCc2c(Cl)cccc2Cl)c(Cl)c1 (centres undefined) [Isoconazole nitrate]
2. CCNC(=O)c1noc(-c2cc(C(C)C)c(O)cc2O)c1-c1ccc(CN2CCOCC2)cc1
3. C[S+](=O)([O-])c1ccc(-c2nnc(/C=C/c3nnc(-c4ccc(C#N)cc4)o3)n2-c2ccccc2Cl)nc1
4. COc1cc(F)c(F)c(Nc2ccc(I)cc2F)c1N[S+](=O)([O-])C1(C[C@H](O)CO)CC1

## Result
23.5
0.105
14.8
2.63

----------
test system: HCT116; test: efficacy (fitted maximal change in viability relative to DMSO control); higher = less cytotoxic (negative = loss of viability); settings: 48 h
Where a name gives a salt, the structure may show the parent alone.
Tick class 1 if efficacy is -40% or greater. Tick class 0 if efficacy is less than -40%.

Solved cases (4 shown):
| molecule | assigned-label |
| --- | --- |
| N=C(N)NC(=N)NCCc1ccccc1 [Phenformin hydrochloride] | class 1 |
| CCCN[S+](=O)([O-])Nc1ncnc(OCCOc2ncc(Br)cn2)c1-c1ccc(Br)cc1 | class 0 |
| C=CC(=O)N1C[C@H](Nc2ncnc3[nH]ccc23)CC[C@@H]1C | class 1 |
| CN(CCOc1ccc(CC2SC(=O)NC2=O)cc1)c1ccccn1 (stereo unspecified) | class 1 |

## Task # bool: efficacy of `CCc1cccc(CC)c1NC(=O)N1Cc2[nH]nc(NC(=O)c3ccc(N4CCN(C)CC4)cc3)c2C1` >= -40%
## Result class 0

## Task # bool: efficacy of `COC/1=C(\CNC(=O)C2=C(C)[N]([C@H](C)C3CCN(CC3)CC(F)(F)F)C4=C2C=CC=C4)C(=O)N/C(=C1)C` >= -40%
## Result class 1

----------
Assignment: determine reported efficacy for the given compounds.
tested on: HCT116; assay: efficacy (fitted maximal change in viability relative to DMSO control); higher = less cytotoxic (negative = loss of viability); details: 48 h
Counter-ions that a name gives are not always drawn.
Numbers only, in %.

Batch of 3 compounds: report efficacy for each.
1. CC(C)(N)C(=O)N[C@H](COCc1ccccc1)C(=O)N1CCC2(CC1)CN([S+](C)(=O)[O-])c1ccccc12 [Ibutamoren mesilate]
2. O=C(O)CC(C(=O)O)N1C(=O)/C(=C2/C(=O)Nc3ccc(Br)cc32)SC1=S (configuration not stated)
3. CCCCCCCOc1ccc(CCC(N)(CO)CO)cc1C(F)(F)F [Amiselimod hydrochloride]

## Result
[-50.7, -11.7, -96.7]

Batch of 3 compounds: report efficacy for each.
1. CCOc1cc2ncc(C#N)c(Nc3ccc(OCc4ccccn4)c(Cl)c3)c2cc1NC(=O)/C=C/CN(C)C
2. Cc1nc2ccc(-n3ncc(C(=O)c4cc5ccccc5[nH]4)c3N)cc2[nH]1
3. COCc1c(-c2ccc(NC(=O)Nc3cc(C(F)(F)F)ccc3F)c(F)c2)c2c(N)ncnn2c1CN1CCOCC1

## Result
1. -72.5
2. -71.3
3. -76

## Task Any idea what its efficacy is? The compound is `Cc1ccc(C(N)=O)cc1Nc1nccc(-c2cn(C(C)C)c3cnccc23)n1`
## Result -69.4

----------
Assignment: determine reported AC50 cell viability for the given molecules.
test system: HCT116; assay: AC50 cell viability (CellTiter-Glo); higher = less potent; conditions: 48 h

Observe how each entry below is paired with its result.
| molecule | target-system | outcome-measure | result |
| --- | --- | --- | --- |
| Cc1ncc(-c2ccnc(Nc3ccc([S+](C)(=O)[O-])cc3)n2)n1C(C)C | HCT116 | AC50 cell viability | 0.525 µM |
| Nc1nc(-c2nn(Cc3ccccc3F)c3ncccc23)ncc1C1CC1 | HCT116 | AC50 cell viability | 1.05 µM |
| CCCOc1ccc(CCc2nc3cc(-c4c(C)noc4C)ccc3n2CCN2CCOCC2)cc1 | HCT116 | AC50 cell viability | 14.8 µM |
| Cc1ccc(C(=O)Nc2ccc(CN3CCN(C)CC3)c(C(F)(F)F)c2)cc1C#Cc1cnc2[nH]ncc2c1 | HCT116 | AC50 cell viability | 0.934 µM |
| CCCCCCNC(=O)N1\C=C(F)/C(=O)NC1=O | HCT116 | AC50 cell viability | 4.17 µM |

Batch of 4 molecules: report AC50 cell viability for each.
1. O=C(NCc1ccccc1)c1csc(Nc2ccncn2)n1
2. Cc1cccc(/C=N/Nc2cc(N3CCOCC3)nc(OCCc3ccccn3)n2)c1
3. CCN1CCN(Cc2ccc(Nc3ncc(F)c(-c4cc(F)c5nc(C)n(C(C)C)c5c4)n3)nc2)CC1
4. COC1(c2sc3c(N4CCOCC4)nc(-c4cnc(N)nc4)nc3c2C)COC1

## Result
20.9 µM
1.18 µM
4.17 µM
0.59 µM

Batch of 2 molecules: report AC50 cell viability for each.
1. Cc1ccc(C(=O)Nc2cccc(C(F)(F)F)c2)cc1Nc1nc(-c2cccnc2)nc2c1cnn2C
2. CCc1nc(-c2cccc(C)c2)c(-c2ccnc(NC(=O)c3ccccc3)c2)s1

## Result
1: 8.33 µM; 2: 26.3 µM

Batch of 5 molecules: report AC50 cell viability for each.
1. CC1=C2N=C([NH]C2=CC(=C1)N3CCOCC3)\C4=C(NC[C@@H](O)C5=CC=CC(=C5)Cl)\C=C/NC4=O
2. CC[S+](=O)([O-])N1CC(CC#N)(n2cc(-c3ncnc4[nH]ccc34)cn2)C1
3. COC\1=C(/OC)C(=O)\C(=C(C)/C1=O)CCCCCCCCCCO
4. CN1CCN([C@H]2CC[C@H](n3cc(-c4ccc(Oc5ccccc5)cc4)c4c(N)ncnc43)CC2)CC1
5. COc1cc(C)c(Sc2cnc(NC(=O)c3ccc(CNC(C)C(C)(C)C)cc3)s2)cc1C(=O)N1CCN(C(C)=O)CC1 (stereo unspecified)

## Result
6.61 µM
29.5 µM
18.6 µM
7.42 µM
11.8 µM
